# experimental_protocol: S. cerevisiae RM11-1a growth modifiers, primary screen, strain RM11-1a, OD600, basal, 24 h (AID 1177);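 further: cultures grown under basal conditions with no added stressor; test concentration not given here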
# experimental_conditions: OD600, 24 h, higher = more signal, called active from +8 up or from −8 down
Output Yes for z-score not less than -0.3; output No otherwise.

{"molecule": "CC(=O)OC[C@H]1O[C@H](CC=NOC(C)CN2CCCc3nc(C)c(C)cc32)C=C[C@@H]1OC(C)=O (some centres undefined)", "category": "Yes"}
{"molecule": "CC=CC1=C(CO)[C@H](O)[C@H]2O[C@H]2[C@@H]1O", "category": "Yes"}
{"molecule": "CCOC(=O)[C@H](CC(C)C)NC(=O)CCC1CC(OC(=O)NCc2ccc3c(c2)OCO3)CC2(CCCC(COC(=O)NCc3ccccc3)O2)O1 (some centres undefined)", "category": "Yes"}
{"molecule": "CCOC(=O)[C@H](CC(C)C)NC(=O)CCC1CC(OC(=O)NCCc2ccc(F)cc2)CC2(CCCC(COC(=O)NCc3cccc(C(F)(F)F)c3)O2)O1 (some centres undefined)", "category": "Yes"}
{"molecule": "CCCNC(=O)OC[C@H]1O[C@H](CCON=C2C[C@@H](O)[C@@H](O)[C@@H]3[C@@H]4C(=O)N(CC)C(=O)[C@@H]4CC[C@@H]23)C=C[C@@H]1Oc1ccc(OC)cc1", "category": "No"}
{"molecule": "CCCNC(=O)OC[C@H]1O[C@H](CCON=C2c3cc(OC)ccc3O[C@H](c3cccc(OC)c3)[C@H]2O)C=C[C@@H]1Oc1ccc(OC)cc1", "category": "Yes"}
{"molecule": "COc1ccc(COC(=O)NN=C2C[C@@H](O)[C@@H](O)[C@@H]3[C@@H]4C(=O)N(C5CCCCC5)C(=O)[C@@H]4CC[C@@H]23)cc1", "category": "Yes"}
{"molecule": "CO[C@H]1COC(=O)CC=C[C@@H](C)COC(=O)[C@H]2CCCN2C(=O)CC=C[C@H]1C", "category": "Yes"}
{"molecule": "COC(=O)[C@H](C)NC(=O)CCC1CC(OC(=O)NCc2cccc3ccccc23)CC2(CCCC(COC(=O)NCCc3ccccc3OC)O2)O1 (some centres undefined)", "category": "Yes"}
{"molecule": "O=C1C[C@H](c2ccccc2)[C@H](c2ccc(Br)cc2)O1", "category": "No"}
{"molecule": "CC(C)=CCCC(C)=CCON=C1C[C@@H](O)[C@@H](O)[C@@H]2[C@@H]3C(=O)N(Cc4ccc5c(c4)OCO5)C(=O)[C@@H]3CC[C@@H]12", "category": "Yes"}
{"molecule": "CC(=O)OC[C@H]1O[C@@H](ON=C(C)CCN2CCCCc3nc(C)c(C)cc32)[C@H](OC(C)=O)[C@@H](OC(C)=O)[C@@H]1OC(C)=O", "category": "No"}
{"molecule": "CCOC(=O)CCN1C(=O)[C@H]2[C@H]3[C@H](O)[C@H](O)CC(=NOCC=C(C)CCC=C(C)C)[C@H]3CC[C@H]2C1=O", "category": "Yes"}
{"molecule": "CC[C@@H](c1ccccc1)n1c(=O)n2n(c1=O)[C@H]1[C@H](O)[C@@H]3O[C@@H]3C(=NOCc3ccccc3)[C@H]1CC2", "category": "Yes"}
{"molecule": "O=C1C2=CC[C@H]3C(=O)N(C4CCCCC4)C(=O)[C@H]3[C@H]2[C@H](O)[C@@H]2O[C@H]12", "category": "No"}
{"molecule": "CCCNC(=O)OC[C@H]1O[C@H](CCON=C[C@@H](C)[C@H](OCc2ccccc2)C(C)C)C=C[C@@H]1Oc1ccc(OC)cc1", "category": "No"}
{"molecule": "Cc1ccc(S(=O)(=O)N[C@@H]2COC(=O)CC=C[C@@H](C)[C@H](NS(=O)(=O)c3ccc(C)cc3)COC(=O)[C@H](C)NC(=O)CC=C[C@H]2C)cc1", "category": "Yes"}
{"molecule": "CC(CCC(=O)OC[C@H]1O[C@H](C#Cc2ccccc2)C=C[C@@H]1Oc1ccc(C)cc1)=NO[C@H](C)c1cn([C@@H]2COC[C@H]2O)nn1", "category": "No"}
{"molecule": "COc1ccc(O[C@H]2C=C[C@@H](c3ccccc3)O[C@@H]2CO)cc1", "category": "Yes"}
{"molecule": "CC(=O)OC[C@H]1O[C@H](CC=NO[C@H](C)c2cn([C@@H]3COC[C@H]3O)nn2)C=C[C@@H]1OC(C)=O", "category": "No"}
{"molecule": "COC(=O)[C@H](C)NC(=O)CCC1CC(OC(=O)NCc2ccc3c(c2)OCO3)CC2(CCCC(COC(=O)NCc3ccccc3)O2)O1 (some centres undefined)", "category": "Yes"}
{"molecule": "CCOC(=O)NN=C1C[C@@H](O)[C@@H](O)[C@@H]2[C@@H]3C(=O)N(c4ccc(F)cc4F)C(=O)[C@@H]3CC[C@H]12", "category": "No"}
{"molecule": "CC(=O)OC[C@H]1O[C@H](C#CCC2CCCCC2)C=C[C@@H]1OC(C)=O", "category": "Yes"}
{"molecule": "C[C@H]1CC[C@H]2C(=O)O[C@H](CO)CN2[C@@H]1c1ccc(Br)cc1", "category": "No"}
{"molecule": "CC(C)CON=C1C[C@@H](O)[C@@H](O)[C@@H]2[C@@H]3C(=O)N([C@@H](C)c4ccccc4)C(=O)[C@@H]3CC[C@@H]12", "category": "Yes"}
{"molecule": "CO[C@H]1C[C@@H]2C[C@H](O)CC(CC(=O)O[C@@H](C=CCC(C)C)C[C@@H]3CC[C@H](C)[C@@H](C1)O3)O2", "category": "No"}
{"molecule": "COC(=O)CC=C[C@@H](C)[C@@H](C=NOC[C@@H](C)[C@H](OCc1ccccc1)C(C)C)OC", "category": "Yes"}
{"molecule": "CCN1C(=O)[C@H]2[C@H]3[C@H](O)[C@H](O)CC(=NO[C@@H](C)c4cc(-c5c(C)cc(C)cc5C)no4)[C@@H]3CC[C@H]2C1=O", "category": "Yes"}
{"molecule": "C=CC[C@@H]1C=C[C@H](ON=C(C)CCN2CCCc3nc(C)c(C)cc32)[C@@H](CO)O1", "category": "Yes"}
